Experiment: GHS categories as the set defines them, by LD50: 1 up to 5, 2 up to 50, 3 up to 300, 4 up to 2000, 5 above 2000 mg/kg
Details: rat; in vivo; po
Below, each of the compounds is paired with its reported GHS category value.
Provide a numeric answer; units are not to be included.

Quick one: GHS category of CCCCCC(=O)OCCC(C)C ?
5

Check CCOc1nc2cccc(C(=O)O)c2n1Cc1ccc(-c2ccccc2-c2nnn[nH]2)cc1 too.
5

Check CCCc1c(Cc2ccc(-c3ccccc3-c3nn[nH]n3)cc2)c(N=[N+]=[N-])nc2ncnn12 too.
4

Check C=CC1=C(C(=O)O)N2C(=O)[C@@H](NC(=O)C(=NOCC(=O)O)c3csc(N)n3)[C@H]2SC1 too.
5

Check CCC(=O)OC(OC(C(=O)O)[P+](=O)CCCCc1ccccc1)C(C)C (stereo not given) too.
5

Check C=C(C)C1CCC(C)C(OC(C)=O)C1 (stereo not given) too.
5

Check CC12CCC3C(CC=C4C=C(N5CCCC5)CCC43C)C1CCC2=O (stereo not given) too.
5

Check CC(C)(C)NC(=O)[C@@H]1CN(Cc2cccnc2)CCN1C[C@@H](O)C[C@@H](Cc1ccccc1)C(=O)N[C@H]1c2ccccc2C[C@H]1O too.
5

Check OC1c2ccccc2CCc2ccncc21 (stereo not given) too.
5

Check Clc1ccc2oc(C3(Cn4cncn4)OCCCO3)cc2c1 too.
4

* * *

Below, each of the compounds is paired with its reported GHS category value.
Test: GHS categories as the set defines them, by LD50: 1 up to 5, 2 up to 50, 3 up to 300, 4 up to 2000, 5 above 2000 mg/kg
Details: rat; in vivo; po
Provide a numeric answer; units are not to be included.

// below: answered compounds
compound=FC(F)(Cl)Cl metric_name="GHS category" experimental_result=4
compound=CC(C)c1nc2ccccc2c(=O)n1-c1ccncc1 metric_name="GHS category" experimental_result=4
compound=Cc1cccc2ncc(C(=O)Nc3ccccc3)c(=O)n12 metric_name="GHS category" experimental_result=3

Quick one: GHS category of COc1ccc2c(c1)CCN(c1cccc(F)c1)C2c1cccc(F)c1 (stereo not drawn) ?
4

Check CCCc1c(Cc2ccc(-c3ccccc3-c3nn[nH]n3)cc2)c(=O)nc2nc(C)[nH]n12 too.
4

Check CCOC(=O)C(C)(C)Oc1ccc2c(c1)C=C(n1ccnc1)CC2 too.
5

* * *

Below, each of the molecules is paired with its reported GHS category value.
Assay: GHS categories as the set defines them, by LD50: 1 up to 5, 2 up to 50, 3 up to 300, 4 up to 2000, 5 above 2000 mg/kg
Settings: rat; in vivo; po
Provide a numeric answer; units are not to be included.

// below: answered molecules
molecule=COc1ccc(C(=O)c2cccc(C)c2)cc1C experimental_result=5
molecule="COc1cc2c(cc1OC)C(c1ccccc1Cl)N(c1ccccc1)CC2 (configuration not stated)" experimental_result=4
molecule="CCCC(Cl)CCCC(Cl)CCC(Cl)CCC(Cl)CCC(Cl)CCCC(Cl)CCC (configuration not stated)" experimental_result=5
molecule=O=C(O)c1cc(O)ccc1Nc1ccc(O)c(C(F)(F)F)c1 experimental_result=4
molecule=COC(=O)CCN[N+](C)(C)C experimental_result=3
molecule=CN1C(=O)C(C)(C)Oc2cc(C(=O)C=Cc3ccc(Cl)cc3)ccc21 experimental_result=5
molecule="CCC(C)(NC(=O)c1cc(Cl)c(C)c(Cl)c1)C(=O)CCl (configuration not stated)" experimental_result=5
molecule="CC1N=C(c2ccccc2Cl)c2c(ccc(NC(=O)NCCO)c2Cl)N(C)C1=O (configuration not stated)" experimental_result=5
molecule=CCCCOC(=O)c1ccc(-n2nc(OCCCN3CCCCC3)c3ccccc32)cc1 experimental_result=4
molecule=CCCCCCCCCl experimental_result=5

Quick one: GHS category of Cc1[nH]nc(C(=O)Nc2cccc(C(F)(F)F)c2)c1Br ?
5

Check CSC(C)=NOC(=O)N(C)SN(C(C)(C)C)P1(=S)OCC(C)(C)CO1 too.
5
